protocol-notes: Cmax in male Sprague-Dawley rat at 10 mg/kg, po measured upto 24 hrs by LC-MS/MS analysis
Assay type: ADME, organism-based
condition-summary: in vivo
metric-name: Cmax (ng/mL)
Entry rule: numbers only, all in ng/mL.

Query: Please look up its Cmax: CC(C)CCNC(=O)c1cccc(-c2ccc3sc(NC(=O)c4ccc(F)cc4)nc3c2)c1
Result: 1120

###

selectivity ratio listing for selected compounds.
protocol-notes: Selectivity index, ratio of IC50 for cytotoxicity against human MRC5 cells assessed as inhibition of cell proliferation to IC50 for antiproliferative activity against human NCI-H1975 cells assessed as inhibition of cell proliferation
Type: toxicity, cell-based
condition-summary: MRC5 cells and NCI-H1975 cells, read-out: Ratio IC50

>>> print(df.to_string())
                                smiles_repr        metric_name  result
0  CC(=O)Nc1nc2cc(-c3ccc4ncn(Cc5ccccc5)c(=O)c4c3)ccc2[nH]1  selectivity ratio    1.83
1  CCCNC(=O)c1cccc(-c2ccc3sc(NC(=O)C(C)(C)C)nc3c2)c1  selectivity ratio   > 9.8
2  CC(=O)Nc1nc2cc(-c3cccc(C(=O)NCc4ccc(F)cc4)c3)ccc2s1  selectivity ratio  > 8.56
3  COCCNC(=O)c1cccc(-c2ccc3sc(NC(=O)c4ccccc4)nc3c2)c1  selectivity ratio  > 4.52
4  COCOc1cc(OCOC)c2c(c1)O[C@@H](c1ccc(OC)cc1)CC2=O  selectivity ratio  > 13.2

Query: Please look up its selectivity ratio: CC(C)CCNC(=O)c1cccc(-c2ccc3sc(NC(=O)C(C)(C)C)nc3c2)c1
Result: > 18.2

Query: Please look up its selectivity ratio: CC(C)CCNC(=O)c1cccc(-c2ccc3sc(NC(=O)c4ccc(F)cc4)nc3c2)c1
Result: > 22.9

Query: Please look up its selectivity ratio: COc1ccc(CNC(=O)c2cccc(-c3ccc4sc(NC(=O)C(C)(C)C)nc4c3)c2)cc1
Result: > 6.52

Query: Please look up its selectivity ratio: Cc1ccc(CNC(=O)c2cccc(-c3ccc4sc(NC(=O)C(C)(C)C)nc4c3)c2)cc1
Result: > 6.43

Query: Please look up its selectivity ratio: COCCNC(=O)c1cccc(-c2ccc3sc(NC(=O)C(C)(C)C)nc3c2)c1
Result: > 7.23

###

System: NCI-H1975
protocol-notes: Antiproliferative activity against human NCI-H1975 cells assessed as inhibition of cell proliferation incubated for 72 hrs by MTT assay
Assay type: functional, cell-based
condition-summary: NCI-H1975, 72 h
Label 1 when IC50 < 10 µM; otherwise -1.

Look over these answered cases.
                                smiles_repr  assay_target  label_value
0  COCCNC(=O)c1cccc(-c2ccc3sc(NC(=O)C(C)(C)C)nc3c2)c1     NCI-H1975           -1
1  CC(=O)Nc1nc2cc(-c3cccc(C(=O)NCc4ccc(F)cc4)c3)ccc2s1     NCI-H1975            1
2  Cc1ccc(CNC(=O)c2cccc(-c3ccc4sc(NC(=O)C(C)(C)C)nc4c3)c2)cc1     NCI-H1975           -1

Next up:
Query: Is IC50 of CC(=O)Nc1nc2cc(-c3cccc(C(=O)NCC4CC4)c3)ccc2s1 strictly below 10 µM?
Result: -1
